Test system: Escherichia coli TOP10;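 further: peptides expressed intracellularly from a pBAD plasmid library in pooled LB shake-flask culture, induced with 0.3% L-arabinose, DNA abundance read by NGS, three biological replicates, DESeq2 with apeglm shrinkage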
Assay: shrunken log2 fold change of peptide-encoding DNA abundance (4.5 h post-induction vs induction); higher = less antimicrobial activity (less host growth inhibition)
Settings: time post-induction: 4.5 h; library: site-saturation at positions 5, 18, 19, 20
Everything with shrunken log2 fold change lower than -0.001 is False; everything else, including exactly -0.001, is True.

- entry sequence: "RRIRLRPPRLPRPRPRPKRDPRP"
  group: "True"
- entry sequence: "RRIRYRPPRLPRPRPRPHFCPRP"
  group: "False"
- entry sequence: "RRIRNRPPRLPRPRPRPELAPRP"
  group: "True"
- entry sequence: "RRIRTRPPRLPRPRPRPYIWPRP"
  group: "False"
- entry sequence: "RRIRLRPPRLPRPRPRPWYPPRP"
  group: "False"
- entry sequence: "RRIRPRPPRLPRPRPRPLENPRP"
  group: "False"
- entry sequence: "RRIRHRPPRLPRPRPRPWHYPRP"
  group: "True"
- entry sequence: "RRIRGRPPRLPRPRPRPGRTPRP"
  group: "True"
- entry sequence: "RRIRGRPPRLPRPRPRPFMNPRP"
  group: "False"
- entry sequence: "RRIRHRPPRLPRPRPRPPSWPRP"
  group: "True"
- entry sequence: "RRIRFRPPRLPRPRPRPANWPRP"
  group: "True"
- entry sequence: "RRIRFRPPRLPRPRPRPQYAPRP"
  group: "False"
- entry sequence: "RRIRHRPPRLPRPRPRPPITPRP"
  group: "False"
- entry sequence: "RRIRYRPPRLPRPRPRPGYKPRP"
  group: "False"
- entry sequence: "RRIRHRPPRLPRPRPRPADFPRP"
  group: "True"
- entry sequence: "RRIRTRPPRLPRPRPRPGIMPRP"
  group: "False"
- entry sequence: "RRIRWRPPRLPRPRPRPAKVPRP"
  group: "False"
- entry sequence: "RRIRHRPPRLPRPRPRPYSVPRP"
  group: "False"
- entry sequence: "RRIRNRPPRLPRPRPRPCWMPRP"
  group: "False"
- entry sequence: "RRIRVRPPRLPRPRPRPGCEPRP"
  group: "True"
- entry sequence: "RRIRHRPPRLPRPRPRPWHHPRP"
  group: "True"
- entry sequence: "RRIRARPPRLPRPRPRPALLPRP"
  group: "True"
- entry sequence: "RRIRFRPPRLPRPRPRPADCPRP"
  group: "False"
- entry sequence: "RRIRFRPPRLPRPRPRPHPYPRP"
  group: "True"
- entry sequence: "RRIRYRPPRLPRPRPRPFEVPRP"
  group: "False"
- entry sequence: "RRIRARPPRLPRPRPRPLESPRP"
  group: "True"
- entry sequence: "RRIRDRPPRLPRPRPRPMMPPRP"
  group: "False"
- entry sequence: "RRIRTRPPRLPRPRPRPQGTPRP"
  group: "True"
- entry sequence: "RRIRTRPPRLPRPRPRPRLCPRP"
  group: "True"
- entry sequence: "RRIRFRPPRLPRPRPRPVNQPRP"
  group: "False"
- entry sequence: "RRIRLRPPRLPRPRPRPRDGPRP"
  group: "True"
- entry sequence: "RRIRWRPPRLPRPRPRPEFYPRP"
  group: "False"
- entry sequence: "RRIRWRPPRLPRPRPRPCHTPRP"
  group: "False"
- entry sequence: "RRIRRRPPRLPRPRPRPKDQPRP"
  group: "True"
- entry sequence: "RRIRGRPPRLPRPRPRPDMRPRP"
  group: "True"
- entry sequence: "RRIRNRPPRLPRPRPRPFQFPRP"
  group: "False"
- entry sequence: "RRIRTRPPRLPRPRPRPKDPPRP"
  group: "True"
- entry sequence: "RRIRYRPPRLPRPRPRPIWLPRP"
  group: "False"
- entry sequence: "RRIRFRPPRLPRPRPRPGDCPRP"
  group: "False"
- entry sequence: "RRIRKRPPRLPRPRPRPFPDPRP"
  group: "False"
- entry sequence: "RRIRQRPPRLPRPRPRPRINPRP"
  group: "False"
- entry sequence: "RRIRSRPPRLPRPRPRPPIEPRP"
  group: "True"
- entry sequence: "RRIRCRPPRLPRPRPRPWTVPRP"
  group: "False"
- entry sequence: "RRIRDRPPRLPRPRPRPAGLPRP"
  group: "True"
- entry sequence: "RRIRYRPPRLPRPRPRPTGCPRP"
  group: "False"
- entry sequence: "RRIRFRPPRLPRPRPRPVFEPRP"
  group: "False"
- entry sequence: "RRIRWRPPRLPRPRPRPRCVPRP"
  group: "True"
- entry sequence: "RRIRKRPPRLPRPRPRPESEPRP"
  group: "True"
- entry sequence: "RRIRMRPPRLPRPRPRPPKQPRP"
  group: "True"
- entry sequence: "RRIRSRPPRLPRPRPRPEDYPRP"
  group: "False"
- entry sequence: "RRIRDRPPRLPRPRPRPSRKPRP"
  group: "False"
- entry sequence: "RRIRNRPPRLPRPRPRPSGEPRP"
  group: "True"
- entry sequence: "RRIRHRPPRLPRPRPRPYRWPRP"
  group: "False"
- entry sequence: "RRIRPRPPRLPRPRPRPIFWPRP"
  group: "True"
- entry sequence: "RRIRLRPPRLPRPRPRPVPMPRP"
  group: "False"
- entry sequence: "RRIRSRPPRLPRPRPRPRDLPRP"
  group: "True"
- entry sequence: "RRIRIRPPRLPRPRPRPECTPRP"
  group: "False"
- entry sequence: "RRIRGRPPRLPRPRPRPFQHPRP"
  group: "False"
- entry sequence: "RRIRFRPPRLPRPRPRPHELPRP"
  group: "True"
